Target entity: mCX3CR1 (Mus musculus, UniProt Q9Z0D9)
Construct: stably expresses a Ca2+ sensitive photo-protein
Sequence (Q9Z0D9 whole entry): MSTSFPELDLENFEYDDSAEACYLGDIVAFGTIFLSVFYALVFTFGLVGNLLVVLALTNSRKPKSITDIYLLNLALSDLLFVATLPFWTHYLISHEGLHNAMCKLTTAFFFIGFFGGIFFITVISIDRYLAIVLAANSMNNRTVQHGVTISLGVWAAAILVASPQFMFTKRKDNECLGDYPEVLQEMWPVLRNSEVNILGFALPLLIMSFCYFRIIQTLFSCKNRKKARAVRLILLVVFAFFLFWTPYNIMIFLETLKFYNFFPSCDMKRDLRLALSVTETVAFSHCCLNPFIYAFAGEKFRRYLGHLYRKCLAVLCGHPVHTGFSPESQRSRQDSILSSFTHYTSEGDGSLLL
Protocol details: Ga16 assay, CX3CR1 agonism, Ca2+ sensitive photo-protein readout (FLIPRTETRA)
Applied conditions: mouse CX3CR1 cell line
Description: Compounds (as well as stereoisomer(s) thereof and/or salt(s) thereof) were tested for CX3CR1 agonism in a cell based assay with fluorescent readout in Agonist Mode in dose response in quadruplicate with intra-plate modality). Buffers and reagents. […] Assay protocol. […] Twenty-four hours later, cells ere assayed for the response to various compounds using the Ca^2+ sensitive photo-protein stably expressed in the cells as readout. […]
Outcome measure: EC50 (µM)

Take a look at these entries with their results.
[
  {
    "Molecule": "COC1CCCN(CC2(CNC(=O)c3cc4c(s3)CCCCCC4)CCC2)C1 (centres unmarked) [Example 55]",
    "EC50 / µM": 8.1
  },
  {
    "Molecule": "CC1(O)CCCN(CC2(CNC(=O)c3cc4c(s3)CCCCCC4)CCCC2)C1 (centres unmarked) [Example 52]",
    "EC50 / µM": 25.1
  },
  {
    "Molecule": "CC(C)(CNC(=O)c1cc2c(s1)CCCCCC2)CN1CCCC1 [Example 1]",
    "EC50 / µM": 15.7
  }
]

1 = COC1(C)CCN(CC2(CNC(=O)c3cc4c(s3)CCCCCC4)CCC2)CC1 [Example 48]
2 = O=C(NCC1(CN2CCCC2)CCCC1)c1cc2c(s1)CCCCCC2 [Example 5]
Query :: Of 1 and 2 , which shows the smaller EC50 value? // caller expects the label of the chosen entry
Result :: 2

====

Target entity: hCX3CR1 (Homo sapiens)
Sequence (P49238 whole entry): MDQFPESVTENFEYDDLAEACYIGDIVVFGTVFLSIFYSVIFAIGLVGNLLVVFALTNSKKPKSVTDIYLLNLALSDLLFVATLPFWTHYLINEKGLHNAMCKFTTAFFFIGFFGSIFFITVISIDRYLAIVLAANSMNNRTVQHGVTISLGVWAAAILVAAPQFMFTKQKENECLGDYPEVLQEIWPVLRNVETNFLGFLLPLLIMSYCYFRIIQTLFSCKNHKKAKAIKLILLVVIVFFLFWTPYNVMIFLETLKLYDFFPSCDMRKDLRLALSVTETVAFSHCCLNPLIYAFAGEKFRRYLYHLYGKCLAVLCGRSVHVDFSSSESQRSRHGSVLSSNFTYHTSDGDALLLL
Protocol details: Ga16 assay, CX3CR1 agonism, Ca2+ sensitive photo-protein readout (FLIPRTETRA)
Type: cell-based
Parameters: expressed in transfected cells; stably expresses a Ca2+ sensitive photo-protein
Applied conditions: human CX3CR1 cell line
Outcome measure: EC50 (µM)

Example entries begin here.
[
  {
    "Compound": "CN(C)CC1(CNC(=O)c2cc3c(s2)CCCCCC3)CC(F)(F)C1",
    "Target entity": "hCX3CR1 (Homo sapiens)",
    "Unit info": "µM",
    "EC50": 18.5
  },
  {
    "Compound": "O=C(NCC1(CN2CCC(O)C2)CCCC1)c1cc2c(s1)CCCCCC2 (racemic) [Example 25]",
    "Target entity": "hCX3CR1 (Homo sapiens)",
    "Unit info": "µM",
    "EC50": 10.5
  },
  {
    "Compound": "CC(C)OC1CCN(CC2(CNC(=O)c3cc4c(s3)CCCCCC4)CCC2)CC1",
    "Target entity": "hCX3CR1 (Homo sapiens)",
    "Unit info": "µM",
    "EC50": 15.7
  },
  {
    "Compound": "CC1CCCC1(CNC(=O)c1cc2c(s1)CCCCCC2)CN(C)C (single isomer, unassigned) [Example 60]",
    "Target entity": "hCX3CR1 (Homo sapiens)",
    "Unit info": "µM",
    "EC50": 16.8
  },
  {
    "Compound": "O=C(NCC1(CN2CCCC2)CC1)c1cc2c(s1)CCCCCC2",
    "Target entity": "hCX3CR1 (Homo sapiens)",
    "Unit info": "µM",
    "EC50": 14.6
  },
  {
    "Compound": "O=C(NCC1(CN2CCCC2)CCOC1)c1cc2c(s1)CCCCCC2 (stereo not shown)",
    "Target entity": "hCX3CR1 (Homo sapiens)",
    "Unit info": "µM",
    "EC50": 11.1
  },
  {
    "Compound": "O=C(NCC1(CN2CCC(O)CC2)CCOCC1)c1cc2c(s1)CCCCCC2",
    "Target entity": "hCX3CR1 (Homo sapiens)",
    "Unit info": "µM",
    "EC50": 20.8
  },
  {
    "Compound": "CCN(CC)CC(C)(C)CNC(=O)c1cc2c(s1)CCCCCC2",
    "Target entity": "hCX3CR1 (Homo sapiens)",
    "Unit info": "µM",
    "EC50": 13.6
  },
  {
    "Compound": "CN(C)CC1(CNC(=O)c2ccc3c(c2)CCCCCC3)CCCC1",
    "Target entity": "hCX3CR1 (Homo sapiens)",
    "Unit info": "µM",
    "EC50": 17.4
  },
  {
    "Compound": "CC1CCCC1(CNC(=O)c1cc2c(s1)CCCCCC2)CN1CCCC1 (stereo not shown)",
    "Target entity": "hCX3CR1 (Homo sapiens)",
    "Unit info": "µM",
    "EC50": 20.8
  }
]

P = CCC(CC)(CNC(=O)c1cc2c(s1)CCCCCC2)CN1CCCC1
Q = CC1(C)CN(CC2(CNC(=O)c3cc4c(s3)CCCCCC4)CCC2)CCC1O (stereo not shown)
Query :: I'm curious whether P or Q has the smaller EC50 number. Which is it? Bench note: the answer is the label of the chosen record.
Result :: P
(P: 11 µM, Q: 21.9 µM)
